test: physchem; format: physicochemical; details: buffer, pH 7.2
MEASURED METRIC: half-life (h)
Reply with just the number (in h).

Provide only the value of recorded half-life for CCCCCCCCCC(=O)OCC(O)COC(=O)CC[C@@H](C)[C@H]1CC[C@H]2[C@@H]3[C@H](OC(=O)CCN)C[C@@H]4C[C@H](OC(=O)CCN)CC[C@]4(C)[C@H]3C[C@H](OC(=O)CCN)[C@]12C (stereo partly shown)
108

###

experiment: Critical micelle concentration, orange OT dye solubilization; assay type: physicochemical; details: aqueous solution with orange OT dye, water; FIG. 4; read-out: critical micelle concentration (CMC), solubilization of orange OT
MEASURED METRIC: critical micelle concentration

Return reported critical micelle concentration. Input compound: CCCCCCCCCC(=O)OCC(O)COC(=O)CC[C@@H](C)[C@H]1CC[C@H]2[C@@H]3[C@H](OC(=O)CCN)C[C@@H]4C[C@H](OC(=O)CCN)CC[C@]4(C)[C@H]3C[C@H](OC(=O)CCN)[C@]12C (stereo partly shown)
~1000 µg/mL
